Entries and their melting point values follow.

Worked cases, answers included:
CC(=O)OC1CSC(Oc2cncc(-c3ccc(OC(C)C)cc3)c2)C(OC(C)=O)C1OC(C)=O (stereo not given) :: 135 °C
CC(C)(C)OC(=O)N1CCC(O)(CS)CC1 :: 54 to 55 °C
Cc1nnc(NCCCN2CCN(C)CC2)c2cc3ccccn3c12 :: 60 °C
COc1ccc(S(=O)(=O)Nc2cc(C(F)(F)F)ccc2Oc2ccccc2C(=O)O)cc1 :: 139 °C

Value of measured melting point for the entry CC(=O)c1ccc(NCc2c(O)ccc3c2CCCO3)cc1 : 213 to 215 °C

Value of measured melting point for the entry CCN1N=C(c2ccc(OC)c(OC)c2)[C@@H]2CCCC[C@@H]2C1=O (relative stereo) : 105 to 106 °C

Value of measured melting point for the entry CCc1nccc(N(C(=O)Cc2ccc(Oc3ccc(C(F)(F)F)cn3)cc2)C(=O)OC)c1Cl : 62 to 64 °C

Value of measured melting point for the entry CC(C)[C@H](NC(=O)N(C)Cc1nc2ccccc2[nH]1)C(=O)N[C@@H](Cc1ccccc1)C[C@H](O)[C@H](Cc1ccccc1)NC(=O)OCc1cccnc1 : 97 to 100 °C

Value of measured melting point for the entry Nn1c(=O)c2cc(F)c(Cl)nc2n(C2CC2)c1=O : 192 to 194 °C

Value of measured melting point for the entry COC(=O)CCC(=O)c1ccc(NS(C)(=O)=O)cc1 : 181 to 183 °C

Value of measured melting point for the entry O=C(c1cc(O)c(O)c([N+](=O)[O-])c1)c1ccccc1F : 169 to 171 °C
